test-system: IKZF2 (Homo sapiens, UniProt Q96SW2+Q9UKS7)
Construct: expressed in transfected cells
Sequence (Q9UKS7 1-500 isoform Q9UKS7-2): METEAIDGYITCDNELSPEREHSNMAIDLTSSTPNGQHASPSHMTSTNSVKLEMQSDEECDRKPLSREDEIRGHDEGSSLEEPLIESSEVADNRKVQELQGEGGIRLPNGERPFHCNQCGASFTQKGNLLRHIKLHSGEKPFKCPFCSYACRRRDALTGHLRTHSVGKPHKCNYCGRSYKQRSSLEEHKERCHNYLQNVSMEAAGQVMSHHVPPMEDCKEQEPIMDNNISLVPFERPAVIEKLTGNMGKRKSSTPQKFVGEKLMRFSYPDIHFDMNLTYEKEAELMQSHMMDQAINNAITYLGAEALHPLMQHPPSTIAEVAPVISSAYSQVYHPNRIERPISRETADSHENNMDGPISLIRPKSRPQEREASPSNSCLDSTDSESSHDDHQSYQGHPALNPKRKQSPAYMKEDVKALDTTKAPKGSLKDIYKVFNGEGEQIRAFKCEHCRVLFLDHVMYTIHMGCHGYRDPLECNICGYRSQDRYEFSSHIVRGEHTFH
Sequence (Q96SW2 whole entry): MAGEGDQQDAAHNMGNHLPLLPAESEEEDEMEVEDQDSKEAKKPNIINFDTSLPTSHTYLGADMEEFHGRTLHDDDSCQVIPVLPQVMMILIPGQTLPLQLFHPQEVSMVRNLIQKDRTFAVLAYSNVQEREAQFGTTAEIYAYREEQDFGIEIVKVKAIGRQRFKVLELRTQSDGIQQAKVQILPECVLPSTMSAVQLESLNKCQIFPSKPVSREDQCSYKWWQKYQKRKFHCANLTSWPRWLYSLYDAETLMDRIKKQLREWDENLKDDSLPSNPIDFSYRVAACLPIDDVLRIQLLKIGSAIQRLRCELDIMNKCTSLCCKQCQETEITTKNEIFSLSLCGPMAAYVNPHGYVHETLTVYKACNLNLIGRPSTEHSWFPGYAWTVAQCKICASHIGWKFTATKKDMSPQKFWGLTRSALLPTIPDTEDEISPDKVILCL
Sequence (Q16531 whole entry partner): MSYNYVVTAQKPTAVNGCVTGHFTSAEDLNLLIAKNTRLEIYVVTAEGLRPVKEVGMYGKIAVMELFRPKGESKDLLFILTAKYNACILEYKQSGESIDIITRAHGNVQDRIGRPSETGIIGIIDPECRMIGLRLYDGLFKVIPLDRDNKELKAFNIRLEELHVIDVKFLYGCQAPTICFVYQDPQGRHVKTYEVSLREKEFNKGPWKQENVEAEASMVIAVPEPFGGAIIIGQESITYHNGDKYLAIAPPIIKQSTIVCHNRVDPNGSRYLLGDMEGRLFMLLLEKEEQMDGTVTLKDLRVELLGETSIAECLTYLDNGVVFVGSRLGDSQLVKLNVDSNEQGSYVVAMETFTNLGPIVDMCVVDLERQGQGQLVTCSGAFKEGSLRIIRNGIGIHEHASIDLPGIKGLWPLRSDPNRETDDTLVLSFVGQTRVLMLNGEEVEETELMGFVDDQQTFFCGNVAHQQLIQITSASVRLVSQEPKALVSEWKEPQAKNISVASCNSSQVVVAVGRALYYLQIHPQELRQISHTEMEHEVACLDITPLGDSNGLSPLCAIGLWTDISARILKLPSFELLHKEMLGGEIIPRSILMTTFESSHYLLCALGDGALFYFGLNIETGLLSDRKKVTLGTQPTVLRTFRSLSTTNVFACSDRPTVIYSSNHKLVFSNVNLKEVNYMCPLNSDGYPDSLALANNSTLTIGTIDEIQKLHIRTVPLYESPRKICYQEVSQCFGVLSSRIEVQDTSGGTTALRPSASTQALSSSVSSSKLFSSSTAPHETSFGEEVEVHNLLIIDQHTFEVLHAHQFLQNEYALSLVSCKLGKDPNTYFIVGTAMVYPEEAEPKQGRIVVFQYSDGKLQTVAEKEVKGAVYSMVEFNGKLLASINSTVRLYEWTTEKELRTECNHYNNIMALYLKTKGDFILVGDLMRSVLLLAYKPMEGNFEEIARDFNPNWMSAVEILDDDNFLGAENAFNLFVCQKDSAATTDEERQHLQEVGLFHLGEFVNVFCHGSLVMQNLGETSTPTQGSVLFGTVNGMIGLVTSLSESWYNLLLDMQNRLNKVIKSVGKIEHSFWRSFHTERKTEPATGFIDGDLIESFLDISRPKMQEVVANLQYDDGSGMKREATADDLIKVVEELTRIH
assay-overview: HiBiT protein tagging assay, in vitro IKZF2 degradation (HEK293)
Assay type: cell-based
experimental-parameters: HEK293, HiBiT assay, HEK293, 18-24 hr incubation, normalized to DMSO control; read-out: IKZF2 Dmax (maximum degradation at the highest concentration tested)
readout-label: Dmax (%)
Numeric only. Scale: %

Solved entries:
O=C1CCC(N2Cc3cc(CN[C@H]4CCCc5ccccc54)ccc3C2=O)C(=O)N1 (stereo partly shown) [Example 43]	78
O=C1CCC(N2Cc3cc(CNC4CCC4)ccc3C2=O)C(=O)N1 (stereo not shown) [Example 41]	42
O=C1CCC(N2Cc3cc(CN[C@H]4CC5CCC4CC5)ccc3C2=O)C(=O)N1 (stereo partly shown) [Example 95]	49

Recall the recorded Dmax for O=C1CCC(N2Cc3cc(CN[C@@H]4CCCC[C@H]4Cc4ccccc4)ccc3C2=O)C(=O)N1 (stereo partly shown) [Example 67] with IKZF2 (Homo sapiens, UniProt Q96SW2+Q9UKS7) and state it. 75

All values here come from patent US20240124412A1.
